test system: RAW-Dual (murine macrophage reporter line); assay: IRF reporter (Lucia luciferase) activity fold change vs agonist alone; higher = enhanced IRF activity; conditions: modulator concentration 10 µM; agonist: LPS 0.1 ug/mL
assayReadout: IRF reporter

O=c1n(CCNS(=O)(=O)Cc2ccccc2)nc(C2CC2)n1-c1ccccc1    1.26
COc1ccc(Cl)cc1C(=O)N1CCC(S(=O)(=O)c2nncn2C)CC1    1.19
CCC(=O)N1CCCC1c1nc2ccccc2n1CCOc1ccc(Cl)cc1 (stereo not drawn)    0.992
O=C(c1ccc(-c2nc3ccccc3s2)s1)N1CCOCC1    1.19
COc1cccc(-c2cc(C(=O)N3CCC(Oc4cc(C)n(C)c(=O)c4)CC3)n(C)n2)c1    0.964
O=C(Nc1ccc(-c2cn3ccsc3n2)cc1)C1CCCC1    1.23
Oc1ccc(N=Cc2ccccc2F)cc1    0.686
COc1ccc(NC(=O)CN(c2ccc(F)cc2)S(C)(=O)=O)c(OC)c1    1.23
COC(=O)[C@H](c1ccccc1Cl)N1CCc2sccc2C1.O=S(=O)(O)O    1.02
COc1ccc(CN(CCN(C)C)c2ccccn2)cc1.O=C(O)C=CC(=O)O    0.915
COc1ccc(Br)c(C(=O)N2CCOCC2CO)c1 (stereo not drawn)    1.36
C=CC(C)(O)CCC=C(C)C (stereo not drawn)    1.22
O=C(NC(=S)c1c(-c2ccccc2)cc2ccccn12)c1ccccc1    1.18
Cc1ccc(C(C)C)c(Oc2ccccc2NC(=O)c2cc(I)cc(I)c2O)c1    1.44
CCOC(=O)OC(C)OC1=C(C(=O)Nc2ccccn2)N(C)S(=O)(=O)c2ccccc21 (stereo not drawn)    1.37
O=C(C=Cc1ccccc1)NC(NC(=S)Nc1cccc2cccnc12)C(Cl)(Cl)Cl (stereo not drawn)    1.01
CCCCOC(=O)C1=C(C)NC2=C(C(=O)CCC2)C1c1cccc(C(F)(F)F)c1 (stereo not drawn)    1.56
CNCc1cc(-c2ccccc2F)n(S(=O)(=O)c2cccnc2)c1.O=C(O)/C=C/C(=O)O    0.97
Oc1ccc(N=Cc2ccccc2O)cc1    0.733
COC1CCN(c2ccc(C(=O)N3CC(n4cc(COc5ccccc5)nn4)C3)cc2)C1 (stereo not drawn)    1.12
CCCC1CCC(c2ccc(C(=O)NNC(=O)c3ccc(C4CCC(CCC)CC4)cc3)cc2)CC1 (stereo not drawn)    1.43
O=S1(=O)CCC(NCc2ccccc2C(F)(F)F)C1 (stereo not drawn)    1.03
CC(=O)O.CCN(CC)CC#CC1(O)CCCCC1    1.21

* * *

test system: RAW-Dual (murine macrophage reporter line); test: NF-kB reporter (SEAP) activity fold change vs agonist alone; higher = enhanced NF-kB activity; conditions: modulator concentration 10 µM; agonist: CpG ODN 1826 0.5 ug/mL
Please use satisfied whenever NF-kB reporter is not below 1, and not satisfied whenever it is.

Nc1ccc(S(N)(=O)=O)cc1    satisfied
NNC(=O)c1ccncc1    satisfied
O=C(CCCCCl)NN1c2ccccc2CCc2ccccc21    satisfied
CCOC(=O)c1c(C)nn(C2CCCCC2)c1N    satisfied
O=C1C=C(c2c(O)ccc3ccccc23)c2ccccc2C1=O    satisfied
CCCCc1oc2ccc(NS(C)(=O)=O)cc2c1C(=O)c1ccc(OCCCN(CCCC)CCCC)cc1.Cl    not satisfied
O=C(NC12CC3CC(CC(C3)C1)C2)N1CCOCC1    not satisfied
N#CC(=Cc1ccc(-c2ccc(Cl)cc2)o1)C(N)=O    not satisfied
CC(=O)c1cccc(NC(=O)CSc2nnc3c4ccccc4n(C)c3n2)c1    not satisfied
COc1cc2c(cc1OC)C1C(=O)c3ccc4c(c3OC1CO2)C=CC(C)(C)O4 (centres undefined)    not satisfied
CC(=O)c1cc(Cl)ccc1OC(=O)c1ccccc1Cl    not satisfied
CC(C)NNC(=O)c1ccncc1    satisfied
Cl.O=C(c1ccc(OCCN2CCCCC2)cc1)c1c(-c2ccc(O)cc2)sc2cc(O)ccc12    not satisfied
CNC(=NC#N)NCCSCc1nc[nH]c1C    not satisfied
O=C(c1ccc(OC(F)(F)F)cc1)N1CCC(Oc2cccnn2)CC1    satisfied
CN1CCN(c2nc(C3=C(c4c[nH]c5ccccc45)C(=O)NC3=O)c3ccccc3n2)CC1    not satisfied
Cc1cc(C(=O)NCc2sc(-c3ccccc3Cl)nc2C)c(C)o1    not satisfied
COc1ccc(-c2coc3cc(O)cc(O)c3c2=O)cc1    satisfied
